Kindly supply the reported self-cleavage kobs at 40 uM GlcN6P values for the records listed here.
B1: glmS ribozyme (parent)
chain: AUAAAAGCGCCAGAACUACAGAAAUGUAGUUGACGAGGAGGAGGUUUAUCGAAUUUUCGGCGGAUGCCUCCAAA

- Variants of: B1
- MEASUREMENT NOTES: self-cleavage kobs at 40 uM GlcN6P; higher = faster cleavage; RNA array
- SETUP CONDITIONS: with glucosamine-6-phosphate
Variants at the floor of the assay were thinned out.

Below: 5 variants and their reported self-cleavage kobs at 40 uM GlcN6P.
The value of self-cleavage kobs at 40 uM GlcN6P measured for the variant G35A G51A turned out to be < 1e-05 s⁻¹

The value of self-cleavage kobs at 40 uM GlcN6P measured for the variant C34G G41C turned out to be < 1e-05 s⁻¹

The value of self-cleavage kobs at 40 uM GlcN6P measured for the variant C34U C58G C68U turned out to be 0.000265 s⁻¹

The value of self-cleavage kobs at 40 uM GlcN6P measured for the variant A42C A53U turned out to be < 1e-05 s⁻¹

The value of self-cleavage kobs at 40 uM GlcN6P measured for the variant C10A G59A turned out to be < 1e-05 s⁻¹

Hello, I would appreciate it if you could give self-cleavage kobs at 40 uM GlcN6P for each entry below.
1. A33G G44C
2. A33C G35C
3. G60C C67U

RESULT:
1: < 1e-05 s⁻¹; 2: < 1e-05 s⁻¹; 3: < 1e-05 s⁻¹

Hello, I would appreciate it if you could give self-cleavage kobs at 40 uM GlcN6P for each entry below.
1. G29C A33C U69A
2. C10A U46G U47G C50G C58G C68U
3. U31G A36G U69A

RESULT:
1: < 1e-05 s⁻¹; 2: 0.000116 s⁻¹; 3: < 1e-05 s⁻¹

Hello, I would appreciate it if you could give self-cleavage kobs at 40 uM GlcN6P for each entry below.
1. C61A U65C C70U
2. G7U U49A
3. U54A C70G
4. G41A G60A G62U C70A
5. C8U A15G G35U C67U

RESULT:
["< 1e-05 s⁻¹", "< 1e-05 s⁻¹", "6.49e-05 s⁻¹", "< 1e-05 s⁻¹", "< 1e-05 s⁻¹"]

Hello, I would appreciate it if you could give self-cleavage kobs at 40 uM GlcN6P for each entry below.
1. A12C U49A
2. C8G G32A G59U
3. C10U G60U
4. C16A U31C A42G G44U C70G
5. U31A A42G U47A
6. G7A A48U U49G

RESULT:
1. < 1e-05 s⁻¹
2. < 1e-05 s⁻¹
3. < 1e-05 s⁻¹
4. < 1e-05 s⁻¹
5. 0.000345 s⁻¹
6. < 1e-05 s⁻¹
